# Test system: Salmonella typhimurium
# Test name: Genotoxicity in Salmonella typhimurium 8907 assessed as number of revertants by Ames test in presence of S9 fraction
# Assay type: toxicity, organism-based
# Condition: salmonella enterica subsp. enterica serovar typhimurium
Experimental readout: Activity

Give the measured Activity of COc1cccc2c1C(=O)c1c(O)c3c(c(O)c1C2=O)C[C@@](O)(C(=O)CO)C[C@@H]3O[C@H]1C[C@H](N)[C@H](O)[C@H](C)O1 .
108 revertants/nmol

---

# System: Salmonella typhimurium
# Test name: Genotoxicity in Salmonella typhimurium 908 assessed as number of revertants by Ames test
# Format: toxicity, organism-based
# Condition: salmonella enterica subsp. enterica serovar typhimurium
Experimental readout: Activity (revertants/nmol)
Note: unit revertants/nmol is implicit; provide only the numeric part.

Given the compound COc1cccc2c1C(=O)c1c(O)c3c(c(O)c1C2=O)C[C@@](O)(C(C)=O)C[C@@H]3O[C@H]1C[C@H](N)[C@H](O)[C@H](C)O1.Cl [DAUNORUBICIN HYDROCHLORIDE] , what is its reported Activity?
356

Each recorded value in this set is attributed to ChEMBL document CHEMBL3227991.
